- study.target: hTDO2 in human glioblastoma A172 cells (Homo sapiens (Human))
- Sequence (P48775 whole entry): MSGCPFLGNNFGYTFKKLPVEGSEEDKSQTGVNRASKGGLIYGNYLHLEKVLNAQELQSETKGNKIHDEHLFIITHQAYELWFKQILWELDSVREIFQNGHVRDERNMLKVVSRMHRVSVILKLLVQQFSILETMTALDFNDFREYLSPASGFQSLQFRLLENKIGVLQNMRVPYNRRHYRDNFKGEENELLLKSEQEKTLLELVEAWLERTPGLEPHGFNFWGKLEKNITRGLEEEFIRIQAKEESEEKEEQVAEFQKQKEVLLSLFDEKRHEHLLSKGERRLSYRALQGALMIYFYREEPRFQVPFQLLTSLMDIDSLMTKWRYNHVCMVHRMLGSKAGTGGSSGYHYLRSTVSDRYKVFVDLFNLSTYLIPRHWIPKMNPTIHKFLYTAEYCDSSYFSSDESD
- protocol.text: Cellular assay for TDO2 activity determination in A172 cells
- condition: overnight incubation, kynurenine absorbance at 480 nm
recorded.endpoint: pIC50
One number for each entry, as −log10 of the molar value.

Recorded pIC50, per entry:
# compound, pIC50
rows = [
    ("Cc1ccc(-c2c[nH]c3cc(F)ccc23)cc1S(=O)(=O)NCCN", 6.17),
    ("O=c1[nH]nc(CCNS(=O)(=O)c2ccc(-c3c[nH]c4cc(F)ccc34)cc2)o1", 6.36),
    ("NCCCN1CCN(S(=O)(=O)c2ccc(-c3c[nH]c4cc(F)ccc34)cc2)CC1=O", 5.88),
    ("O=C(CCNS(=O)(=O)c1ccc(-c2c[nH]c3cc(F)ccc23)cc1)N1C[C@@H](O)[C@@H](O)C1", 6.29),
    ("N[C@H]1CN(C(=O)CCNS(=O)(=O)c2ccc(-c3c[nH]c4cc(F)ccc34)cc2)C[C@@H]1F", 6.66),
    ("CC(C)Oc1cc(-c2c[nH]c3cc(F)ccc23)ccc1S(=O)(=O)NCCC(N)=O", 5.39),
    ("C[C@]1(O)CCN(S(=O)(=O)c2ccc(-c3c[nH]c4cc(F)ccc34)cc2)C1", 4.04),
    ("CN1CCN(S(=O)(=O)c2ccc(-c3c[nH]c4cc(F)ccc34)cc2)CC1=O", 6.59),
    ("CN(C)CCN1CCN(S(=O)(=O)c2ccc(-c3c[nH]c4cc(F)ccc34)cc2)CC1=O", 6.35),
    ("O=S(=O)(c1ccc(-c2c[nH]c3cc(F)ccc23)cc1)N1CCN[C@H](CO)C1", 6.72),
]

Would you mind giving pIC50 for every compound in the list below?
1. Cc1noc(CCNS(=O)(=O)c2ccc(-c3c[nH]c4cc(F)ccc34)cc2)n1
2. NCCNS(=O)(=O)c1ccc(F)c(-c2c[nH]c3cc(F)ccc23)c1
3. O=S(=O)(c1ccc(-c2c[nH]c3cc(F)ccc23)cc1)N1CCC(O)(c2cncnc2)C1 (centres unmarked)

Result block:
[6.44, 5.46, 6.92]

====

Kindly state pIC50 for each of the entries shown.
- study.target: hTDO2 in human glioblastoma A172 cells (Homo sapiens (Human))
- protocol.text: Cellular assay for TDO2 activity determination in A172 cells
- condition: overnight incubation, kynurenine absorbance at 480 nm
One number for each entry, as −log10 of the molar value.

# compound, meas.value
rows = [
    ("O=S(=O)(c1cc(-c2c[nH]c3cc(F)ccc23)ccc1Cl)N1CCNCC1", 6.20),
    ("CNC(=O)Cc1cc(-c2c[nH]c3cc(F)ccc23)ccc1S(N)(=O)=O", 6.26),
    ("O=C1CCCN1CC1(O)CCN(S(=O)(=O)c2ccc(-c3c[nH]c4cc(F)ccc34)cc2)C1 (stereo not shown)", 4.07),
]

Would you mind giving pIC50 for every compound in the list below?
1. O=C1CN(S(=O)(=O)c2ccc(-c3c[nH]c4cc(F)ccc34)cc2)CCN1C[C@H](O)CO
2. NC(=O)Cc1cc(-c2c[nH]c3cc(F)ccc23)ccc1S(N)(=O)=O
3. NC(=O)CCNS(=O)(=O)c1ccc(-c2c[nH]c3cc(F)ccc23)cc1CO
4. CN1CCN(C(=O)CCNS(=O)(=O)c2ccc(-c3c[nH]c4cc(F)ccc34)cc2)CC1
5. O=C1CCN(S(=O)(=O)c2ccc(-c3c[nH]c4cc(F)ccc34)cc2)CCN1
6. CN(CC(O)c1cnccn1)S(=O)(=O)c1ccc(-c2c[nH]c3cc(F)ccc23)cc1 (stereo not shown)
7. O=S(=O)(c1ccc(-c2c[nH]c3cc(F)ccc23)cc1)N1C[C@H](O)[C@@H](O)[C@@H]1CO

Result block:
1: 6.36; 2: 6.76; 3: 7.39; 4: 6.59; 5: 6.89; 6: 6.79; 7: 6.90

Would you mind giving pIC50 for every compound in the list below?
1. NCCNS(=O)(=O)c1cc(-c2c[nH]c3cc(F)ccc23)ccc1Cl
2. COCc1cc(-c2c[nH]c3cc(F)ccc23)ccc1S(=O)(=O)NCCC(N)=O
3. C[C@@H]1CN(S(=O)(=O)c2ccc(-c3c[nH]c4cc(F)ccc34)cc2)C[C@H](C)N1

Result block:
1: 6.37; 2: 6.47; 3: 6.49
